pEC50 for assorted compounds
ASSAYED TARGET: human PPAR α (Homo sapiens, UniProt Q07869)
Sequence (Q07869 167-468 limits assumed): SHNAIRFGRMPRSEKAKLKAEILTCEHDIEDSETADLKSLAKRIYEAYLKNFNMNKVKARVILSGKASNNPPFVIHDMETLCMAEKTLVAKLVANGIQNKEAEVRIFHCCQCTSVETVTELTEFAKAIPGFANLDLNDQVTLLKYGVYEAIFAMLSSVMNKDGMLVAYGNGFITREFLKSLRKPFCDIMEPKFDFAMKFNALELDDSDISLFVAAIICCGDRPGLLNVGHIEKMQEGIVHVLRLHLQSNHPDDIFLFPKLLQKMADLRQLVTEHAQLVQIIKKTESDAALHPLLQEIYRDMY
TEST SUMMARY: In vitro PPAR alpha transactivation assay (GAL4-DBD/PPAR-LBD, luciferase reporter, HEK293)
MEASUREMENT CONDITIONS: transfected HEK293 cells, 24 h compound, five concentrations 0.01 to 30 μM, at least three experiments, means; read-out: In vitro activation PPAR α EC50
pEC50: −log10 of the molar value.

>  <COMPOUND>
CCO[C@@H](Cc1ccc(OC/C=C(\C)c2ccc(-c3ccc(Br)cc3)cc2)cc1)C(=O)O

>  <pEC50>
5.51

$$$$
>  <COMPOUND>
CCOC(=O)[C@H](Cc1ccc(OC/C=C/c2cc3ccccc3o2)cc1)OCC

>  <pEC50>
7.00

$$$$
>  <COMPOUND>
CCOC(=O)[C@H](Cc1ccc(OC/C=C(\C)c2ccc3c(c2)Cc2ccccc2-3)cc1)OCC

>  <pEC50>
7.42

$$$$
>  <COMPOUND>
CCO[C@@H](Cc1ccc(OC/C=C(\C)c2ccc(-c3cc(Cl)ccc3OC)cc2)cc1)C(=O)O

>  <pEC50>
6.42

$$$$
>  <COMPOUND>
C/C(=C\COc1ccc(CC(OC(C)C)C(=O)O)cc1)c1ccc(-c2ccccc2)cc1 (racemic)

>  <pEC50>
5.54

$$$$
>  <COMPOUND>
CCO[C@@H](Cc1ccc(OC/C=C(\C)c2ccc(-c3cc(Br)cc(Br)c3)cc2)cc1)C(=O)O

>  <pEC50>
6.46

$$$$

----------
ASSAYED TARGET: human PPAR γ (Homo sapiens)
Construct: PPARγ: aa 165—C-terminus); expressed in transfected cells; host or cells: HEK293
Sequence (P37231 238-503 limits assumed): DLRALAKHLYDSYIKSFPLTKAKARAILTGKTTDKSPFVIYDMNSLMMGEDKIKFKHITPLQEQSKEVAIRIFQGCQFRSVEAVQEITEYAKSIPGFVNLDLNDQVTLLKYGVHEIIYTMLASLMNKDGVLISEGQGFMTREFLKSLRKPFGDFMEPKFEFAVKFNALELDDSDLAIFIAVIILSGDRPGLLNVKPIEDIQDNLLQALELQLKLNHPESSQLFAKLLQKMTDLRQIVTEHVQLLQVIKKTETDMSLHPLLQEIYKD
TEST SUMMARY: In vitro PPAR gamma transactivation assay (GAL4-DBD/PPAR-LBD, luciferase reporter, HEK293)
Format: cell-based
MEASUREMENT CONDITIONS: fold activation relative to maximum activation obtained with rosiglitazone (approx. […] fold corresponded to 100%)
PROPERTY MEASURED: In vitro activation PPAR γ % max (%)

>  <MOLECULE>
CCOC(=O)[C@H](Cc1ccc(OC/C=C(\C)c2ccc3c(c2)Cc2ccccc2-3)cc1)OCC

>  <OBSERVED>
125

$$$$
>  <MOLECULE>
CCO[C@@H](Cc1ccc(OC/C=C(\C)c2ccc(-c3cc(Cl)ccc3OC)cc2)cc1)C(=O)O

>  <OBSERVED>
110

$$$$
>  <MOLECULE>
CCOC(=O)[C@H](Cc1ccc(OC/C=C/c2cc3ccccc3o2)cc1)OCC

>  <OBSERVED>
99

$$$$
>  <MOLECULE>
CCO[C@@H](Cc1ccc(OC/C=C(\C)c2ccc(-c3ccc(Br)cc3)cc2)cc1)C(=O)O

>  <OBSERVED>
156

$$$$
>  <MOLECULE>
C/C(=C\COc1ccc(CC(OC(C)C)C(=O)O)cc1)c1ccc(-c2ccccc2)cc1 (racemic)

>  <OBSERVED>
155

$$$$
>  <MOLECULE>
CCO[C@@H](Cc1ccc(OC/C=C(\C)c2ccc(-c3cc(Br)cc(Br)c3)cc2)cc1)C(=O)O

>  <OBSERVED>
83

$$$$

----------
In vitro activation PPAR α % max for assorted compounds
ASSAYED TARGET: human PPAR α (Homo sapiens)
Construct: expressed in transfected cells; host or cells: HEK293
TEST SUMMARY: In vitro PPAR alpha transactivation assay (GAL4-DBD/PPAR-LBD, luciferase reporter, HEK293)
Format: cell-based
MEASUREMENT CONDITIONS: fold activation relative to maximum activation obtained with Wy14643 (approx. 20 fold corresponded to 100%)

>  <COMPOUND>
CCO[C@@H](Cc1ccc(OC/C=C(\C)c2ccc(-c3cc(Br)cc(Br)c3)cc2)cc1)C(=O)O

>  <In vitro activation PPAR α % max (%)>
102

$$$$
>  <COMPOUND>
CCOC(=O)[C@H](Cc1ccc(OC/C=C(\C)c2ccc3c(c2)Cc2ccccc2-3)cc1)OCC

>  <In vitro activation PPAR α % max (%)>
234

$$$$
>  <COMPOUND>
C/C(=C\COc1ccc(CC(OC(C)C)C(=O)O)cc1)c1ccc(-c2ccccc2)cc1 (racemic)

>  <In vitro activation PPAR α % max (%)>
122

$$$$
>  <COMPOUND>
CCO[C@@H](Cc1ccc(OC/C=C(\C)c2ccc(-c3cc(Cl)ccc3OC)cc2)cc1)C(=O)O

>  <In vitro activation PPAR α % max (%)>
178

$$$$
>  <COMPOUND>
CCO[C@@H](Cc1ccc(OC/C=C(\C)c2ccc(-c3ccc(Br)cc3)cc2)cc1)C(=O)O

>  <In vitro activation PPAR α % max (%)>
212

$$$$
>  <COMPOUND>
CCOC(=O)[C@H](Cc1ccc(OC/C=C/c2cc3ccccc3o2)cc1)OCC

>  <In vitro activation PPAR α % max (%)>
185

$$$$

----------
melting point for assorted compounds
PROPERTY MEASURED: melting point

>  <COMPOUND>
CCCCOC(Cc1ccc(OC/C=C(\C)c2ccc(-c3ccccc3)cc2)cc1)C(=O)OCC (racemic) [Example 135]

>  <OBSERVED>
62 to 63.5 °C

$$$$
>  <COMPOUND>
CCOC(=O)C(Cc1ccc(OC/C=C(\C)c2ccc(-c3ccccc3)cc2)cc1)OC(C)C (racemic) [Example 133]

>  <OBSERVED>
79 to 81 °C

$$$$
>  <COMPOUND>
CCCCCCOC(Cc1ccc(OC/C=C(\C)c2ccc(-c3ccccc3)cc2)cc1)C(=O)O (racemic) [Example 138]

>  <OBSERVED>
117 to 119 °C

$$$$
>  <COMPOUND>
C/C(=C\COc1ccc(CC(OCCCc2ccccc2)C(=O)O)cc1)c1ccc(-c2ccccc2)cc1 (racemic) [Example 140]

>  <OBSERVED>
115 to 117 °C

$$$$
>  <COMPOUND>
C/C(=C\COc1ccc(CC(OC(C)C)C(=O)O)cc1)c1ccc(-c2ccccc2)cc1 (racemic) [Example 134]

>  <OBSERVED>
125 to 127.5 °C

$$$$
>  <COMPOUND>
CCOC(=O)[C@H](Cc1ccc(OC/C=C(\C)c2ccc(-c3ccc(C(C)C)cc3)cc2)cc1)OCC [Example 103]

>  <OBSERVED>
70 to 73 °C

$$$$
